# test_summary: Phase 1 open-label one-sequence crossover drug-interaction study: plasma pharmacokinetics of NBI-98854 and metabolites with and without rifampin
# Format: in vivo, human
# condition_description: both sexes, human, plasma, oral, plasma metabolite NBI-98782; NBI-98854 80 mg + rifampin 600 mg; N = 11; Mean (SD); read-out: AUC0-24
experimental_endpoint: AUC(0-t) (ng·h/mL)
Could you give me the number in ng·h/mL? Just the number is fine.

What does the record list as AUC(0-t) for COc1cc2c(cc1OC)[C@H]1C[C@@H](O)[C@H](CC(C)C)CN1CC2 [NBI-98782] ?
115

###

# test_summary: Phase 1 open-label one-sequence crossover drug-interaction study: plasma pharmacokinetics of NBI-98854 and metabolites with and without rifampin
# Format: in vivo, human
# condition_description: both sexes, human, oral; plasma NBI-98854; NBI-98854 80 mg alone; N = 11; Mean (SD)
experimental_endpoint: MRT (h)
Provide the reading as a plain figure in h.

Need MRT, item `COc1cc2c(cc1OC)[C@H]1C[C@@H](OC(=O)[C@@H](N)C(C)C)[C@H](CC(C)C)CN1CC2`
17

###

# test_summary: Phase 1 open-label one-sequence crossover drug-interaction study: plasma pharmacokinetics of NBI-98854 and metabolites with and without rifampin
# Type: in vivo, human
# condition_description: both sexes, human, plasma, oral, plasma metabolite NBI-136110; NBI-98854 80 mg + rifampin 600 mg; N = 11; Mean (SD); read-out: AUC0-24
experimental_endpoint: AUC(0-t)

Need AUC(0-t), item `COc1cc2c(cc1OC)[C@H]1C[C@@H](OC(=O)[C@@H](N)C(C)(C)O)[C@H](CC(C)C)CN1CC2`
554 ng·h/mL

###

# test_summary: Phase 1 open-label one-sequence crossover drug-interaction study: plasma pharmacokinetics of NBI-98854 and metabolites with and without rifampin
# Assay type: in vivo, human
# condition_description: both sexes, human, plasma, oral, plasma metabolite NBI-136110; NBI-98854 80 mg + rifampin 600 mg; N = 11; Mean (SD); read-out: AUC0-tlast
experimental_endpoint: AUC(0-t) (ng·h/mL)
State the answer as a number, implicitly in ng·h/mL.

State the recorded AUC(0-t) for this entry: `COc1cc2c(cc1OC)[C@H]1C[C@@H](OC(=O)[C@@H](N)C(C)(C)O)[C@H](CC(C)C)CN1CC2`
658

###

# test_summary: Phase 1 open-label one-sequence crossover drug-interaction study: plasma pharmacokinetics of NBI-98854 and metabolites with and without rifampin
# Assay type: in vivo, human
# condition_description: both sexes, human, oral; plasma NBI-98854; NBI-98854 80 mg + rifampin 600 mg; N = 11; Median (mm, max); read-out: tmax
experimental_endpoint: Tmax (min)
Answer in min, number only, no unit symbol.

Reported Tmax, compound `COc1cc2c(cc1OC)[C@H]1C[C@@H](OC(=O)[C@@H](N)C(C)C)[C@H](CC(C)C)CN1CC2` : ____
45

###

# test_summary: Phase 1 open-label one-sequence crossover drug-interaction study: plasma pharmacokinetics of NBI-98854 and metabolites with and without rifampin
# Assay type: in vivo, human
# condition_description: both sexes, human, oral; plasma NBI-98854; NBI-98854 80 mg alone; N = 11; Mean (SD)
experimental_endpoint: AUC(0-inf) (ng·h/mL)
The answer is to be given in ng·h/mL; state only the numeric part.

Quick one: AUC(0-inf) for COc1cc2c(cc1OC)[C@H]1C[C@@H](OC(=O)[C@@H](N)C(C)C)[C@H](CC(C)C)CN1CC2 [NBI-98854] ?
6020
